Source listed as ChEMBL document CHEMBL1938364.

- SYSTEM_NAME: hERG (KCNH2) (Homo sapiens)
- Sequence (Q12809 whole entry): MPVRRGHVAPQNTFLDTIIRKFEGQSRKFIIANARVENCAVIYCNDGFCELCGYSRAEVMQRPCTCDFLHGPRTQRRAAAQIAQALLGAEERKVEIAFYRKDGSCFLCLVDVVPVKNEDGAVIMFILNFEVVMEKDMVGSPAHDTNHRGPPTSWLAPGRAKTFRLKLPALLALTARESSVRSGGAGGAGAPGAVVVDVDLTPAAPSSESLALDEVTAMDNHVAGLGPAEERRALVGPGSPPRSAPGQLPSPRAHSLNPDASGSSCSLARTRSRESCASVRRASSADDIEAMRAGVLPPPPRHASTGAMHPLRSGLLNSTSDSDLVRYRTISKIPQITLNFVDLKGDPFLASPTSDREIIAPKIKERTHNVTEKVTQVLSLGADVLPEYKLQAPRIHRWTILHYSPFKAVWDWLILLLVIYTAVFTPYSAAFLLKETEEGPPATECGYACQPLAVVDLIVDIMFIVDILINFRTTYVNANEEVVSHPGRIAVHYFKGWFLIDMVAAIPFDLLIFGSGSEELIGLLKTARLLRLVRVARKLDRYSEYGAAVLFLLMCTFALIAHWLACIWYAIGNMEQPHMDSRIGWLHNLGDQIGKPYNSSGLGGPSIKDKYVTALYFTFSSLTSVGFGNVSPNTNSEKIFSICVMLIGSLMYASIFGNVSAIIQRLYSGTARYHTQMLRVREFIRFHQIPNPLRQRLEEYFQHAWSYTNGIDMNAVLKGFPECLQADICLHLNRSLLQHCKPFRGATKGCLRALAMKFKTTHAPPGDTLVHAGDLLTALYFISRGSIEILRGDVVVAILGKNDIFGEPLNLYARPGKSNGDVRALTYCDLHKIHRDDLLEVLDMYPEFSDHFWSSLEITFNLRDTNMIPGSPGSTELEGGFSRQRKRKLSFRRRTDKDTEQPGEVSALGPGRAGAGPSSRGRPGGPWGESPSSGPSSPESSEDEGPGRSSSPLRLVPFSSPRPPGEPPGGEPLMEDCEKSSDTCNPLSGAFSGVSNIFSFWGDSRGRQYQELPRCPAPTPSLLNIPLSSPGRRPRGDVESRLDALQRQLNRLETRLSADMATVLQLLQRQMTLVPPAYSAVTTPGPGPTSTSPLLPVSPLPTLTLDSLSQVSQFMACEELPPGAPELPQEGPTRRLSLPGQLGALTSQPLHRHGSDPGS
- PROTOCOL_NOTES: Inhibition of human ERG at 10 uM
EXPERIMENTAL_READOUT: inhibition at 10 µM (%)

INSERT INTO measurements (smiles_str, experimental_readout, value_observed) VALUES
  ('COc1cc(C)c2nc3[nH]nc(C)c3c(CN3CCCOCC3)c2c1', 'inhibition at 10 µM', 5.3);

###

What follows is a collection of pKi values obtained with cGMP-specific 3',5'-cyclic phosphodiesterase (Homo sapiens).
pKi: −log10 of the molar value.
EXPERIMENTAL_READOUT: pKi

INSERT INTO measurements (smiles_str, value_observed) VALUES
  ('COc1cc(C)c2nc3[nH]nc(C)c3c(CN3CCCOCC3)c2c1', 5.01),
  ('Cc1cc(O)cc2c(CN3CCCOCC3)c3c(C)n[nH]c3nc12', 4.68);

###

- PROTOCOL_NOTES: Displacement of [3H]cAMP from PDE6 by competitive binding assay
Just a reminder that ties go to No: only Ki strictly below 2000 nM counts as Yes.

INSERT INTO measurements (molecule, group_label) VALUES
  ('COc1cc(C)c2nc3[nH]nc(C)c3c(CN3CCOC(CO)C3)c2c1 (configuration not stated)', 'Yes'),
  ('COc1cc(C)c2nc3[nH]nc(C)c3c(CN3CCOC(C)C3)c2c1 (configuration not stated)', 'No'),
  ('COc1cc(C)c2nc3[nH]nc(C)c3c(CN3CCCOCC3)c2c1', 'No'),
  ('COc1cc(C)c2nc3[nH]nc(C)c3c(CN3CC[C@@H](O)C3)c2c1', 'No'),
  ('Cc1cc(O)cc2c(CN3CCCOCC3)c3c(C)n[nH]c3nc12', 'No'),
  ('COCCOc1cc(C)c2nc3[nH]nc(C)c3c(CN3CCCOCC3)c2c1', 'No');

###

- SYSTEM_NAME: cAMP and cAMP-inhibited cGMP 3',5'-cyclic phosphodiesterase 10A (Homo sapiens)
- Sequence (Q9Y233 whole entry): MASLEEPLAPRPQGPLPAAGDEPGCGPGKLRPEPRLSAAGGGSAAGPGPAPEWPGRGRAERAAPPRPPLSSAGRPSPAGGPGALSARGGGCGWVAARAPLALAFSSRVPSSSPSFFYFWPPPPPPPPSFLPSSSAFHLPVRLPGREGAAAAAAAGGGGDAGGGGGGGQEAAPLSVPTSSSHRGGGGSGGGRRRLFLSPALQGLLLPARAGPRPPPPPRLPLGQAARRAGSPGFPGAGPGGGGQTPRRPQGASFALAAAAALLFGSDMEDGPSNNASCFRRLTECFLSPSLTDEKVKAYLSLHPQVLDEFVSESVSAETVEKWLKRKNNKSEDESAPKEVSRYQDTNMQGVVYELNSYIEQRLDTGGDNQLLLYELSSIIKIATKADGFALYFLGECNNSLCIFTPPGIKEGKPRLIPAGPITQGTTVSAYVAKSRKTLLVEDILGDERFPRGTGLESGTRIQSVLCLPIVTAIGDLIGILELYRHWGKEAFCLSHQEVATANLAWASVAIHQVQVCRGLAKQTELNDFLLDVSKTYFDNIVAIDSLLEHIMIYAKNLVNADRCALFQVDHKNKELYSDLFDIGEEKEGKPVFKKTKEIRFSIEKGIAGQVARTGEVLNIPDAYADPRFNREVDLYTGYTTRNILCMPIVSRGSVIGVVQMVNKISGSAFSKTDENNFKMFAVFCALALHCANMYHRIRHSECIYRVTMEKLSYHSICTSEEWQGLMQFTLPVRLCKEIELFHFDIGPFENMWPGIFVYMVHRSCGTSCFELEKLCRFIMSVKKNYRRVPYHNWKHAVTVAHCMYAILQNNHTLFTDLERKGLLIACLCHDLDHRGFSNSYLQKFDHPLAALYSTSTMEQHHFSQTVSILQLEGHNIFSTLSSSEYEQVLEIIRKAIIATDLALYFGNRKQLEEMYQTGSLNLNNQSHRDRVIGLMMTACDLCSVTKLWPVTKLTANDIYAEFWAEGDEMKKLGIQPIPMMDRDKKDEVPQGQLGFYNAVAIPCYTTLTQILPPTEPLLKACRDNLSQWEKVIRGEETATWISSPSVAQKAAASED
- PROTOCOL_NOTES: Displacement of [3H]cAMP from human recombinant PDE10A1 by competitive binding assay
# maps each entry to its Ki
EXPERIMENTAL_READOUT: Ki

INSERT INTO results (compound, system_name, value_observed) VALUES
  ('COc1cc(C)c2nc3[nH]nc(C)c3c(CN3[C@@H]4CC[C@H]3C[C@@H](O)C4)c2c1', 'cAMP and cAMP-inhibited cGMP 3'',5''-cyclic phosphodiesterase 10A (Homo sapiens)', '0.265 µM'),
  ('Cc1cc(O)cc2c(CN3CCCOCC3)c3c(C)n[nH]c3nc12', 'cAMP and cAMP-inhibited cGMP 3'',5''-cyclic phosphodiesterase 10A (Homo sapiens)', '0.002 µM'),
  ('COc1cc(C)c2nc3[nH]nc(C)c3c(CN3CCOC(C)(C)C3)c2c1', 'cAMP and cAMP-inhibited cGMP 3'',5''-cyclic phosphodiesterase 10A (Homo sapiens)', '0.171 µM'),
  ('COc1cc(C)c2nc3[nH]nc(C)c3c(CN3CCCC3)c2c1', 'cAMP and cAMP-inhibited cGMP 3'',5''-cyclic phosphodiesterase 10A (Homo sapiens)', '0.024 µM'),
  ('Cc1cc(Cl)cc2c(CN3CCCOCC3)c3c(C)n[nH]c3nc12', 'cAMP and cAMP-inhibited cGMP 3'',5''-cyclic phosphodiesterase 10A (Homo sapiens)', '0.041 µM'),
  ('COc1cc(C)c2nc3[nH]nc(C)c3c(CN3C[C@@H](C)O[C@@H](C)C3)c2c1', 'cAMP and cAMP-inhibited cGMP 3'',5''-cyclic phosphodiesterase 10A (Homo sapiens)', '0.026 µM'),
  ('COc1cc(C)c2nc3[nH]nc(C)c3c(CN3CC[C@@H](O)C3)c2c1', 'cAMP and cAMP-inhibited cGMP 3'',5''-cyclic phosphodiesterase 10A (Homo sapiens)', '0.003 µM'),
  ('COc1cc(C)c2nc3[nH]nc(C)c3c(CN3CCC(O)CC3)c2c1', 'cAMP and cAMP-inhibited cGMP 3'',5''-cyclic phosphodiesterase 10A (Homo sapiens)', '0.057 µM'),
  ('COc1ccc2nc3[nH]nc(C)c3c(CN3CCCOCC3)c2c1', 'cAMP and cAMP-inhibited cGMP 3'',5''-cyclic phosphodiesterase 10A (Homo sapiens)', '0.153 µM'),
  ('COc1cc(C)c2nc3[nH]nc(C)c3c(CN3CCC(CO)C3)c2c1 (centres undefined)', 'cAMP and cAMP-inhibited cGMP 3'',5''-cyclic phosphodiesterase 10A (Homo sapiens)', '0.032 µM'),
  ('Cc1n[nH]c2nc3c(OC(F)(F)F)cc(Br)cc3c(CN3CCCOCC3)c12', 'cAMP and cAMP-inhibited cGMP 3'',5''-cyclic phosphodiesterase 10A (Homo sapiens)', '0.037 µM'),
  ('COc1cc(C)c2nc3[nH]nc(C)c3c(CN3CCOC(C)C3)c2c1 (centres undefined)', 'cAMP and cAMP-inhibited cGMP 3'',5''-cyclic phosphodiesterase 10A (Homo sapiens)', '0.003 µM'),
  ('COc1cc(C)c2nc3[nH]nc(C)c3c(CN3CC4CC3CO4)c2c1 (centres undefined)', 'cAMP and cAMP-inhibited cGMP 3'',5''-cyclic phosphodiesterase 10A (Homo sapiens)', '0.046 µM'),
  ('COc1cc(C)c2nc3[nH]nc(C)c3c(CN3CCC(F)CC3)c2c1', 'cAMP and cAMP-inhibited cGMP 3'',5''-cyclic phosphodiesterase 10A (Homo sapiens)', '0.202 µM'),
  ('Cc1n[nH]c2nc3ccc(C(F)(F)F)cc3c(CN3CCCOCC3)c12', 'cAMP and cAMP-inhibited cGMP 3'',5''-cyclic phosphodiesterase 10A (Homo sapiens)', '0.104 µM'),
  ('COc1cc(C)c2nc3[nH]nc(C)c3c(CN3CCOC(CO)C3)c2c1 (centres undefined)', 'cAMP and cAMP-inhibited cGMP 3'',5''-cyclic phosphodiesterase 10A (Homo sapiens)', '0.0006 µM'),
  ('COCCOc1cc(C)c2nc3[nH]nc(C)c3c(CN3CCCOCC3)c2c1', 'cAMP and cAMP-inhibited cGMP 3'',5''-cyclic phosphodiesterase 10A (Homo sapiens)', '0.001 µM'),
  ('COc1cc(C)c2nc3[nH]nc(C)c3c(CN3CCCCC3)c2c1', 'cAMP and cAMP-inhibited cGMP 3'',5''-cyclic phosphodiesterase 10A (Homo sapiens)', '0.804 µM'),
  ('COc1cc(C)c2nc3[nH]nc(C)c3c(CN3C4CCC3CC4)c2c1', 'cAMP and cAMP-inhibited cGMP 3'',5''-cyclic phosphodiesterase 10A (Homo sapiens)', '1.2 µM'),
  ('COc1cc(C)c2nc3[nH]nc(C)c3c(CN3CCN[C@H](C)C3)c2c1', 'cAMP and cAMP-inhibited cGMP 3'',5''-cyclic phosphodiesterase 10A (Homo sapiens)', '0.03 µM'),
  ('Cc1cc(Cl)cc2c(CN3CC4CC3CO4)c3c(C)n[nH]c3nc12 (centres undefined)', 'cAMP and cAMP-inhibited cGMP 3'',5''-cyclic phosphodiesterase 10A (Homo sapiens)', '0.06 µM'),
  ('Cc1cc(Cl)cc2c(CN3C4CCC3CC4)c3c(C)n[nH]c3nc12', 'cAMP and cAMP-inhibited cGMP 3'',5''-cyclic phosphodiesterase 10A (Homo sapiens)', '0.229 µM'),
  ('Cc1cc(OC(C)C)cc2c(CN3CCCOCC3)c3c(C)n[nH]c3nc12', 'cAMP and cAMP-inhibited cGMP 3'',5''-cyclic phosphodiesterase 10A (Homo sapiens)', '0.008 µM'),
  ('COc1cc(C)c2nc3[nH]nc(C)c3c(CN3CCNC(=O)C3)c2c1', 'cAMP and cAMP-inhibited cGMP 3'',5''-cyclic phosphodiesterase 10A (Homo sapiens)', '0.009 µM'),
  ('COc1cc(C)c2nc3[nH]nc(C)c3c(CN3CCCC(C(F)(F)F)C3)c2c1 (centres undefined)', 'cAMP and cAMP-inhibited cGMP 3'',5''-cyclic phosphodiesterase 10A (Homo sapiens)', '0.353 µM'),
  ('COc1cc(C)c2nc3[nH]nc(C)c3c(CN3CCNCC3)c2c1', 'cAMP and cAMP-inhibited cGMP 3'',5''-cyclic phosphodiesterase 10A (Homo sapiens)', '0.049 µM'),
  ('COc1cc(OC)c2nc3[nH]nc(C)c3c(CN3CCCOCC3)c2c1', 'cAMP and cAMP-inhibited cGMP 3'',5''-cyclic phosphodiesterase 10A (Homo sapiens)', '0.014 µM'),
  ('Cc1cc(OC(F)(F)F)cc2c(CN3CCCOCC3)c3c(C)n[nH]c3nc12', 'cAMP and cAMP-inhibited cGMP 3'',5''-cyclic phosphodiesterase 10A (Homo sapiens)', '0.019 µM'),
  ('COc1cc(C)c2nc3[nH]nc(C)c3c(CN3CCC(C(F)(F)F)CC3)c2c1', 'cAMP and cAMP-inhibited cGMP 3'',5''-cyclic phosphodiesterase 10A (Homo sapiens)', '0.871 µM');
